The measurements presented in this section are drawn from patent US20250206836A1.

- measurementTarget: T1, human CD36 (His-tagged) (human, UniProt P16671 30-439)
- T1 construct: not shown: His tag
- T1 sequence (P16671 30-439 limits assumed): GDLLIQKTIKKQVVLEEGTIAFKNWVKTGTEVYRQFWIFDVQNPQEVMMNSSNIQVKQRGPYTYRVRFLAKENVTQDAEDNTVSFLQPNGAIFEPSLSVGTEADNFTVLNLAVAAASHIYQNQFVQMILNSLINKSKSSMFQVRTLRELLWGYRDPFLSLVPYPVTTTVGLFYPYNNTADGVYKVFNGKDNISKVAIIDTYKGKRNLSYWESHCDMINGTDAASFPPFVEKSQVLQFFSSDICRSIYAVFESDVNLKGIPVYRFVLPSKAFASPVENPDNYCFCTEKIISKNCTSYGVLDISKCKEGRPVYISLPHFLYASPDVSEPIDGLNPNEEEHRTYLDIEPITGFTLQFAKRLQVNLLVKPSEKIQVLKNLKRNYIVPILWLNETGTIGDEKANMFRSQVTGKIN
- testProtocol: SPR (Biacore T200), His-captured CD36, bivalent analyte model
observable: koff (s⁻¹)
Give just the numeric value; s⁻¹ need not be written.

[ask] Determine its reported koff: 14G04 (antibody, human IgG1, V domains shown, Chimeric: mouse variable regions on human IgG1 LALA (L234A/L235A); also called 014G04) VH: QVQLQQSGAELVRSGASVRLSCTASGFNIKDYYIHWVKQRPEQGLEWIGWIDPENGDTEYAPRFQDKATMTADTSSNTAYLQLSSLTSEDTAVYYCNGWLLSGNGMDYWGQGTSVTVSS VL: DIVMTQSHKFMSTSVGDRVSITCKASQDVGTAVAWYQQKPGQSPKLLIYWASTRHTGVPDRFTGSGSGTDFTLTISNVQSEDLADYFCQQYSSYPTFGGGTKLEIK
[reply] 0.0072
